Test system: NS-1 mouse myeloma ATCC TIB-18
Experiment: Antitumour resazurin assay, NS-1 mouse myeloma cells
Type: cell-based
Conditions: Mus musculus, 96 h, read-out: IC50 ± 95% confidence interval, NS-1
Procedure: To ascertain the bioactivity of all compounds the inhibitory concentrations of 1–6 were measured against bacteria (Bacillus subtilis ATCC 6633 and Staphylococcus aureus ATCC 25923), yeasts (Candida albicans ATCC 10231 and Saccharomyces cerevisiae ATCC 9763), a protozoan (Tritrichomonas foetus), and mammalian cell lines (NS-1 mouse myeloma ATCC TIB-18 and NFF human neonatal foreskin fibroblast cells ATCC PCS-201). […]
Answer each item with its documented IC50.
Write the number in nM without appending the unit.

Given the compound CC[C@H](O)[C@@H](C)[C@H]1O[C@@H]1C[C@H](C)/C=C/C=C(\C)[C@H]1OC(=O)C[C@H](O)CC[C@H](C)[C@@H](OC(C)=O)/C=C/[C@@H]1C [Compound 2, 6-deoxypladienolide B] , what is its reported IC50?
40.3

Endpoint output: IC50 of CC[C@H](O)[C@@H](C)[C@H]1O[C@@H]1C[C@H](C)/C=C/C=C(\C)[C@H]1OC(=O)C[C@H](O)CC[C@@](C)(O)[C@@H](OC(C)=O)/C=C/[C@@H]1C [Compound 1, pladienolide B] . Value?
5.6
